Experimental target: Tyrosine-protein kinase Lck (Homo sapiens, UniProt P06239)
Sequence (P06239 whole entry): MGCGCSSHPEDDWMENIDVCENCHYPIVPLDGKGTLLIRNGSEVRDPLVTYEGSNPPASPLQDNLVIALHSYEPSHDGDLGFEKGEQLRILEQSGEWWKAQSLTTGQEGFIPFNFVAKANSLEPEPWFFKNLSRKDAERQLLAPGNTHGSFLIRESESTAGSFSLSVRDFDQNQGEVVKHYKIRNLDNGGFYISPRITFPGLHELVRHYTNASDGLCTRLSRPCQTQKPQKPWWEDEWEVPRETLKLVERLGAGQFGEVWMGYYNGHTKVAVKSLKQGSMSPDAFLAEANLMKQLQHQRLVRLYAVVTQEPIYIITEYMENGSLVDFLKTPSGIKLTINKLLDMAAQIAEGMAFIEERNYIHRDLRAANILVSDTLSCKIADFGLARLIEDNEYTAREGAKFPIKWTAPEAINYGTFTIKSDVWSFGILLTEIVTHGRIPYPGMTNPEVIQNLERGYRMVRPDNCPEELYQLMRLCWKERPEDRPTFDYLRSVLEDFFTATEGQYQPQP
Measured property: IC50 (nM)
Give bare numbers, in nM.

I would be grateful if you could share the reported IC50 for "CC(=O)Nc1ccc2ncnc(Nc3ccc(OCc4ccccn4)c(Cl)c3)c2c1" . 1220

---

Experimental target: Epidermal growth factor receptor (Homo sapiens, UniProt P00533)
Sequence (P00533 whole entry): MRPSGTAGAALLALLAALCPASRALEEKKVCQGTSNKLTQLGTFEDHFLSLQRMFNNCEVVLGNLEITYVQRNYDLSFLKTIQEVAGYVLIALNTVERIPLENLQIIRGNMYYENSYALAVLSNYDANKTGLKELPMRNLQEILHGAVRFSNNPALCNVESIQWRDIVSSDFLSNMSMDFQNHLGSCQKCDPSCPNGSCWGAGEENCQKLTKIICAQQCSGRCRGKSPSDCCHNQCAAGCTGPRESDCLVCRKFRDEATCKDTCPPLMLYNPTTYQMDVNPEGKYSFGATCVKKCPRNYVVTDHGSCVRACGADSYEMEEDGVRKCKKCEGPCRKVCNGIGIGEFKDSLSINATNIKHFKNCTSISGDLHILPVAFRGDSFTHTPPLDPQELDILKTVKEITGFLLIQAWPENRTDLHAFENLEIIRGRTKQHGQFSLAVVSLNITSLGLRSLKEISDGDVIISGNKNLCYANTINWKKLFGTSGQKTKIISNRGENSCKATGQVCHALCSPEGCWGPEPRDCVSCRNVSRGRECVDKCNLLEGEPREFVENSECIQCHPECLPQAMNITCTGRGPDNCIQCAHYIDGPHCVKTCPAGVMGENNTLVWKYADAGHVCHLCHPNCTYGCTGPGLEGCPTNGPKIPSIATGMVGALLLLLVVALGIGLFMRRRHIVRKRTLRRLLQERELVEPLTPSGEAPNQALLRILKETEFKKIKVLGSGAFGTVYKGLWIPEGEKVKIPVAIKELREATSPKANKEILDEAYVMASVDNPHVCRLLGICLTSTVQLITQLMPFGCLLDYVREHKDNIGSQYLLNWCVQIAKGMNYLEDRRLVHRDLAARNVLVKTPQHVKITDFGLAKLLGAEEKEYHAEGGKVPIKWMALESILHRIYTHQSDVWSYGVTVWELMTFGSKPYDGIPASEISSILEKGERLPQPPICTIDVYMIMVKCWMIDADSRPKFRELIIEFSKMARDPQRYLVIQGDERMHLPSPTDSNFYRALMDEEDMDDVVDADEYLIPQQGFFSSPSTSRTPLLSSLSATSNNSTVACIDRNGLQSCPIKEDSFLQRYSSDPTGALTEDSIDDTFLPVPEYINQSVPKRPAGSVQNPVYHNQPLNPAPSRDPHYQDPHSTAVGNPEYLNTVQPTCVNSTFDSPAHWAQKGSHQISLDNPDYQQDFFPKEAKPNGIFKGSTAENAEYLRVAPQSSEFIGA
Could you please report measured pIC50 for the items listed next?
Numbers only, as −log10 of the molar value.

Consider the following illustrative entries.
I would be grateful if you could share the reported pIC50 for "N#CC(C#N)=CNc1ccc2ncnc(Nc3ccc(OCc4cccc(F)c4)c(Cl)c3)c2c1" . 6.35

I would be grateful if you could share the reported pIC50 for "CC(=O)Nc1ccc2ncnc(Nc3ccc(OCc4ccccn4)c(Cl)c3)c2c1" . 8.52

I would be grateful if you could share the reported pIC50 for "CCNC(=O)Nc1ccc(C(=O)Nc2ccc3ncnc(Nc4ccc(F)c(Cl)c4)c3c2)cc1" . 7.51

I would be grateful if you could share the reported pIC50 for "CCOC(=O)C(=CNc1ccc2ncnc(Nc3ccc(OCc4cccc(F)c4)c(Cl)c3)c2c1)C(=O)OCC" . 6.09

Further cases:
I would be grateful if you could share the reported pIC50 for "CCOC(=O)C(=CNc1ccc2ncnc(Nc3ccc(Oc4cccc(C(F)(F)F)c4)c(Cl)c3)c2c1)C(=O)OCC" . 7.64

---

Epidermal growth factor receptor (Homo sapiens, UniProt P00533): recorded IC50 for assorted compounds
Numbers only, in nM.

I would be grateful if you could share the reported IC50 for "CCOC(=O)C(=CNc1ccc2ncnc(Nc3ccc(OCc4ccccn4)c(Cl)c3)c2c1)C(=O)OCC" . 1020

Batch of 2 compounds: report IC50 for each.
1. CCNC(=O)Nc1ccc2ncnc(Nc3ccc(OCc4cccc(F)c4)c(Cl)c3)c2c1
2. CCNC(=O)Nc1ccc2ncnc(Nc3ccc(OCc4ccccn4)c(Cl)c3)c2c1

1: 35; 2: 227

---

Receptor tyrosine-protein kinase erbB-2 (Homo sapiens): recorded pIC50 for assorted compounds
Sequence (P04626 whole entry): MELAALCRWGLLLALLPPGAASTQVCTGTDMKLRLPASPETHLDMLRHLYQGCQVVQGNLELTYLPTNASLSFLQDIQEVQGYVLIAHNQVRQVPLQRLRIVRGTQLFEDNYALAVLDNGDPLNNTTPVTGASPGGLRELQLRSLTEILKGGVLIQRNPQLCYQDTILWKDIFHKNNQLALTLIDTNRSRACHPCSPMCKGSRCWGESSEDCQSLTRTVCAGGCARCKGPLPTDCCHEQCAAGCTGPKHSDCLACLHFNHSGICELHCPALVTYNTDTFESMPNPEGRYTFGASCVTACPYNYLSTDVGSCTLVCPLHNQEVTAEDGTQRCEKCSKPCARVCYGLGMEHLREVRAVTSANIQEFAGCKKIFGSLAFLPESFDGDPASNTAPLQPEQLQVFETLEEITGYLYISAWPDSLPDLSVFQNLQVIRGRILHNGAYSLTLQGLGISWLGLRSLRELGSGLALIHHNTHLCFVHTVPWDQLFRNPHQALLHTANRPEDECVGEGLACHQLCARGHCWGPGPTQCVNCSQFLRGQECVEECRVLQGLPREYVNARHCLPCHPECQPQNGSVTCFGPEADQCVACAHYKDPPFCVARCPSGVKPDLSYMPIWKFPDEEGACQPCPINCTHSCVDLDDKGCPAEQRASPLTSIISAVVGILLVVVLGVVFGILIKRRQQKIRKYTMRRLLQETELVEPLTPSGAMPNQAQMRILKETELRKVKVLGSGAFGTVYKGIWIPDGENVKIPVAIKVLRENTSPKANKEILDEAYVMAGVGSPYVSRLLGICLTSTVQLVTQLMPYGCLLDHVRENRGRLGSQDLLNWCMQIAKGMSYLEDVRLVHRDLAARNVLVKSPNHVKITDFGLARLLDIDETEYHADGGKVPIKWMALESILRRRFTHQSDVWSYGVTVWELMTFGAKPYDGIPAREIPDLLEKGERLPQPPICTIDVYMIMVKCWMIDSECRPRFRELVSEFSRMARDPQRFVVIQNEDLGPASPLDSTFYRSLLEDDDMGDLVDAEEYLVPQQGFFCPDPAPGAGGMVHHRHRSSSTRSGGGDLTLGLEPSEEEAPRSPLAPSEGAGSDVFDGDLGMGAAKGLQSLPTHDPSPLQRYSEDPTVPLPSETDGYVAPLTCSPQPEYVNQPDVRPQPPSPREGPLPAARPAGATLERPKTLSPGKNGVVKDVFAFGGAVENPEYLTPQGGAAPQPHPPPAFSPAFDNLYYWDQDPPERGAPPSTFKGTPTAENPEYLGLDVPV
Numbers only, as −log10 of the molar value.

Consider the following illustrative entries.
I would be grateful if you could share the reported pIC50 for "CCNC(=O)Nc1ccc2ncnc(Nc3ccc(OCc4cccc(F)c4)c(Cl)c3)c2c1" . 6.90

I would be grateful if you could share the reported pIC50 for "NC(=O)Nc1ccc2ncnc(Nc3ccc(Oc4cccc(C(F)(F)F)c4)c(Cl)c3)c2c1" . 7.11

I would be grateful if you could share the reported pIC50 for "CCNC(=O)Nc1ccc2ncnc(Nc3ccc(Oc4cccc(C(F)(F)F)c4)c(Cl)c3)c2c1" . 6.20

I would be grateful if you could share the reported pIC50 for "CC(=O)Nc1ccc2ncnc(Nc3ccc(OCc4ccccn4)c(Cl)c3)c2c1" . 7.80

Batch of 2 compounds: report pIC50 for each.
1. NC(=O)Nc1ccc2ncnc(Nc3ccc(Oc4ccc(Cl)c(Cl)c4)c(Cl)c3)c2c1
2. CCNC(=O)Nc1ccc2ncnc(Nc3ccc(OCc4ccccn4)c(Cl)c3)c2c1

6.15
5.86

// data source = ChEMBL document CHEMBL3632549
